B1: TPR 5TU (parent)
chain: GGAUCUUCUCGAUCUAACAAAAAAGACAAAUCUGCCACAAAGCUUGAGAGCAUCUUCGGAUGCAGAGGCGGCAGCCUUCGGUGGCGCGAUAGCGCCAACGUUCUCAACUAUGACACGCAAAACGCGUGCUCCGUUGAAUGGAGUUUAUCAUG

Variants of: B1
Assay: polymerase ribozyme fitness, log enrichment relative to wild type (log ratio); higher = more active; in vitro selection for triplet polymerase activity
Variants at the floor of the assay were thinned out.
resultType: polymerase ribozyme fitness (log ratio)
Please give the numeric answer without any surrounding text.

U13G C57U C96G
-1.66
A17U A22U A52G G92C A115G
-2.67
A20U C54A G92U
-3.48

Report measured polymerase ribozyme fitness (log ratio); entry is C36U A52U
-1.56

Report measured polymerase ribozyme fitness (log ratio); entry is C69U G81U
-2.07

Report measured polymerase ribozyme fitness (log ratio); entry is C57U C85U C87U U144G
-0.0249

Report measured polymerase ribozyme fitness (log ratio); entry is G80U C114U U144C
-3.95

Report measured polymerase ribozyme fitness (log ratio); entry is U53A A64G
-3.41

Report measured polymerase ribozyme fitness (log ratio); entry is A20C G83C C96G
-1.83

Report measured polymerase ribozyme fitness (log ratio); entry is U6G A21C G152A
-2.84

Report measured polymerase ribozyme fitness (log ratio); entry is G59A G83U G84A
-1.23

Source: the RNAGym collection of RNA variant scans (doi:10.1073/pnas.2313332121)
